molecular target: D1 (Homo sapiens, UniProt P21728); assay: Human D1 receptor binding assay ([3H]-SCH23390 competition); settings: Human D1 Receptor Binding, Ki (nM), Geometric mean of 2-4 determinations, a: >=5 determinations, d: single determination
Sequence (P21728 whole entry): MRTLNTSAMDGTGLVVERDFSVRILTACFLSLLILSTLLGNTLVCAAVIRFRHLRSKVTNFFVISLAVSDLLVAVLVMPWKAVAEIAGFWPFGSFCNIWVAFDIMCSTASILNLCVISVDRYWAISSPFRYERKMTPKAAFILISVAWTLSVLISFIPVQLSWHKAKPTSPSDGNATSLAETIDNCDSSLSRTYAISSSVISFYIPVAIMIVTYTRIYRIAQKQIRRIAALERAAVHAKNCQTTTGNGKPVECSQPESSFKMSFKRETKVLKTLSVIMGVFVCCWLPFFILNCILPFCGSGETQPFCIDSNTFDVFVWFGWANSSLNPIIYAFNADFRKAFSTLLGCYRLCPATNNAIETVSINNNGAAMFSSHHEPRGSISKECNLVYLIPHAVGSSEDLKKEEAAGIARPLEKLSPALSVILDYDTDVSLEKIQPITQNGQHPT
measurement.name: Ki (nM)

Reference set (3 entries):
smiles=COc1cccc2c(-c3ccc(Oc4nccc5occc45)cc3)ncnc12 test_system="D1 (Homo sapiens, UniProt P21728)" unit_of_measurement=nM number=170
smiles=Cc1ncnc(C)c1-c1ccc(Oc2nccc3occc23)cc1OCc1nc(C2CC2)no1 test_system="D1 (Homo sapiens, UniProt P21728)" unit_of_measurement=nM number=55.5
smiles=Cc1cc(Oc2nccc3occc23)cc(C)c1-c1c(C)ncc2nccn12 test_system="D1 (Homo sapiens, UniProt P21728)" unit_of_measurement=nM number=10.6

A = Cc1cc(Oc2nccc3occc23)ccc1-c1nc2nccn2cc1C
B = Cc1cc(Oc2nccc3occc23)ccc1-c1c(C)nc(C#N)c2nccn12
Request: I would appreciate it if you could say which entry, A or B , has the lower Ki value. Return value: the label identifying the chosen record.
Response: A
